ENDPOINT_NAME: AC50

Q: Write down measured AC50 (D(3) dopamine receptor (Homo sapiens)) for this compound. CC(C)(C)C(=O)Oc1ccc(S(=O)(=O)Nc2ccccc2C(=O)NCC(=O)O)cc1
Ans: > 30 µM

Q: Write down measured AC50 (D(3) dopamine receptor (Homo sapiens)) for this compound. Cc1cccc(Nc2ccccc2C(=O)O)c1C
Ans: > 30 µM

Q: Write down measured AC50 (D(3) dopamine receptor (Homo sapiens)) for this compound. CO[C@H]1C[C@@H]2CC[C@@H](C)[C@@](O)(O2)C(=O)C(=O)N2CCCC[C@H]2C(=O)O[C@H]([C@H](C)C[C@@H]2CC[C@@H](O)[C@H](OC)C2)CC(=O)[C@H](C)/C=C(\C)[C@@H](O)[C@@H](OC)C(=O)[C@H](C)C[C@H](C)/C=C/C=C/C=C/1C
Ans: 0.87 µM

Q: Write down measured AC50 (D(3) dopamine receptor (Homo sapiens)) for this compound. CC(=O)Nc1ccc(O)cc1
Ans: > 30 µM

Q: Write down measured AC50 (D(3) dopamine receptor (Homo sapiens)) for this compound. O=C(NCCN1CCOCC1)c1ccc(Cl)cc1 [MOCLOBEMIDE]
Ans: > 30 µM

Q: Write down measured AC50 (D(3) dopamine receptor (Homo sapiens)) for this compound. CN1C(=O)CCS(=O)(=O)C1c1ccc(Cl)cc1 (stereo unspecified)
Ans: > 30 µM
